Where these numbers come from: PubChem BioAssay AID2060510

viability, T/C for assorted molecules
System: 439559-082-T-J2-PDC spheroids viability
Test summary: Anticancer human tumor 439559-082-T-J2-PDC patient-derived colon adenocarcinoma cell line growth inhibition [GQUAD]
Experimental context: second compound 10 µM; first compound 0.0999 µM; stronger effect = lower value
Give the quantity in %, number only.

For CC[C@@]1(O)C(=O)OCc2c1cc1n(c2=O)Cc2cc3c(CN(C)C)c(O)ccc3nc2-1 + CN(C)c1ccc(Nc2c3ccc(NC(=O)CCN4CCCC4)cc3nc3cc(NC(=O)CCN4CCCC4)ccc23)cc1 , what is its reported viability, T/C? 85.8

Field entry: CCc1c2c(nc3ccc(O)cc13)-c1cc3c(c(=O)n1C2)COC(=O)[C@]3(O)CC + Cc1[nH]c2ccc(F)cc2c1-c1nc2c3cccnc3c3ncccc3c2[nH]1 63.1

Moving on to the next molecule.
What does the record list as viability, T/C for Cn1ncnc1[C@H]1c2n[nH]c(=O)c3cc(F)cc(c23)N[C@@H]1c1ccc(F)cc1 + CN(C)c1ccc(Nc2c3ccc(NC(=O)CCN4CCCC4)cc3nc3cc(NC(=O)CCN4CCCC4)ccc23)cc1 ? 99.6

---

System: 439559-082-T-J2-PDC spheroids viability
Test summary: Anticancer human tumor 439559-082-T-J2-PDC cell line growth inhibition [GQUAD];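 also: spheroids exposed to the agents for 7 days before readout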;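 as to viability, T/C: percent of luminescence signal in DMSO vehicle wells taken as 100% viability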
Experimental context: second compound 1 µM; first compound 10 µM; stronger effect = lower value
Each record here notes measured viability, T/C.
Numeric answer only, unit % assumed.

Given C#Cc1c(F)ccc2cc(O)cc(-c3ncc4c(N5CC6CCC(C5)N6)nc(OCC56CCCN5CC(F)C6)nc4c3F)c12 (stereo not given) + Cc1[nH]c2ccc(F)cc2c1-c1nc2c3cccnc3c3ncccc3c2[nH]1 , state its recorded viability, T/C. 5.9

Queued: COc1cccc2c1C(=O)c1c(O)c3c(c(O)c1C2=O)CC(O)(C(=O)CO)CC3OC1CC(N)C(O)C(C)O1 (stereo not given) + Cc1[nH]c2ccc(F)cc2c1-c1nc2c3cccnc3c3ncccc3c2[nH]1 56.2

Next compound: CC1COCCN1c1cc(C2(S(C)(=N)=O)CC2)nc(-c2ccnc3[nH]ccc23)n1 (stereo not given) + CN(C)c1ccc(Nc2c3ccc(NC(=O)CCN4CCCC4)cc3nc3cc(NC(=O)CCN4CCCC4)ccc23)cc1 67.6

Continuing:
// query viability, T/C value for entry Cc1cccc(N(C)C(=O)C2C(O)CCN2c2nc(C)cc(C(F)(F)F)c2C#N)c1 (stereo not given) + Cc1cnc(CNC(=O)c2c(=O)c3ccc(N4CCCN(C)CC4)nc3n3c2sc2ccccc23)cn1 74.8

Let us now turn to Nc1ccn(C2OC(CO)C(O)C2(F)F)c(=O)n1 (stereo not given) + Cc1[nH]c2ccc(F)cc2c1-c1nc2c3cccnc3c3ncccc3c2[nH]1 22.6

---

Test system: 439559-082-T-J2-PDC spheroids viability
Test summary: Anticancer human tumor 439559-082-T-J2-PDC cell line growth inhibition [GQUAD];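 also: spheroids exposed to the agents for 7 days before readout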
Experimental context: curve of first compound; second compound 0.316 µM
Source text: DNA G-quadruplex Stabilizer Agents in Combinations in Complex Spheroids A high-throughput screen of multi-cell type tumor spheroids was designed to identify active combinations of DNA G-quadruplex stabilizer agents and targeted small molecules. […] Compounds. […] If the clinical Cmax for an agent had not been determined, the highest concentration tested was 10 microM. […]
pIC50: −log10 of the molar value.
Measurement name: pIC50

I would be grateful if you could share the reported pIC50 for COc1ccc([C@@H](O)c2cc(-c3ncnc4cc(N5CCOCC5)ccc34)c(F)cc2Cl)nn1 + CN(C)c1ccc(Nc2c3ccc(NC(=O)CCN4CCCC4)cc3nc3cc(NC(=O)CCN4CCCC4)ccc23)cc1 . < 5.00

---
Give the measured pIC50 of CC1COCCN1c1cc(C2(S(C)(=N)=O)CC2)nc(-c2ccnc3[nH]ccc23)n1 (stereo not given) + Cc1[nH]c2ccc(F)cc2c1-c1nc2c3cccnc3c3ncccc3c2[nH]1 . < 5.00

Queued: C=CC(=O)N1CCN(c2nc(=O)n(-c3c(C)ccnc3C(C)C)c3nc(-c4c(O)cccc4F)c(F)cc23)C(C)C1 (stereo not given) + Cc1[nH]c2ccc(F)cc2c1-c1nc2c3cccnc3c3ncccc3c2[nH]1 < 5.00

What about this compound? CC1COCCN1c1cc(C2(O)CC3CCC(C2)O3)c2cnn(-c3ccn[nH]3)c2n1 (stereo not given) + Cc1cnc(CNC(=O)c2c(=O)c3ccc(N4CCCN(C)CC4)nc3n3c2sc2ccccc23)cn1 6.44

Another compound to check: Cn1ncnc1[C@H]1c2n[nH]c(=O)c3cc(F)cc(c23)N[C@@H]1c1ccc(F)cc1 + CN(C)c1ccc(Nc2c3ccc(NC(=O)CCN4CCCC4)cc3nc3cc(NC(=O)CCN4CCCC4)ccc23)cc1 < 6.50

---

System: 439559-082-T-J2-PDC spheroids viability
Test summary: Anticancer human tumor 439559-082-T-J2-PDC cell line growth inhibition [GQUAD];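 also: spheroids exposed to the agents for 7 days before readout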;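 as to viability, T/C: percent of luminescence signal in DMSO vehicle wells taken as 100% viability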
Experimental context: second compound 0.316 µM; first compound 0.316 µM; stronger effect = lower value
API: label(entry) gives TRUE if the entry's viability, T/C is strictly smaller than 70%; on equality or larger values it gives FALSE.

Before answering, review these 2 worked examples.
Please state whether viability, T/C is below 70% for CC[C@@]1(O)C(=O)OCc2c1cc1n(c2=O)Cc2cc3c(CN(C)C)c(O)ccc3nc2-1 + CN(C)c1ccc(Nc2c3ccc(NC(=O)CCN4CCCC4)cc3nc3cc(NC(=O)CCN4CCCC4)ccc23)cc1 FALSE

Again, but for CC(C)n1c(=O)n(C)c2cnc3cc(F)c(-c4ccc(OCCCN5CCCCC5)nc4)cc3c21 + CN(C)c1ccc(Nc2c3ccc(NC(=O)CCN4CCCC4)cc3nc3cc(NC(=O)CCN4CCCC4)ccc23)cc1 FALSE

Others:
Please let me know if CC1COCCN1c1cc(-c2ccnn2C)c2ccnc(-c3ccn[nH]3)c2n1 (stereo not given) + Cc1[nH]c2ccc(F)cc2c1-c1nc2c3cccnc3c3ncccc3c2[nH]1 shows viability, T/C below 70%. TRUE

Also CC1COCCN1c1cc(-c2ccnn2C)c2ccnc(-c3ccn[nH]3)c2n1 (stereo not given) + Cc1cnc(CNC(=O)c2c(=O)c3ccc(N4CCCN(C)CC4)nc3n3c2sc2ccccc23)cn1 ? TRUE

Same for O=C(NO)c1cnc(N2CCN(S(=O)(=O)c3ccc4ccccc4c3)CC2)nc1 + Cc1cnc(CNC(=O)c2c(=O)c3ccc(N4CCCN(C)CC4)nc3n3c2sc2ccccc23)cn1 TRUE

---

Test system: 439559-082-T-J2-PDC spheroids viability
Test summary: Anticancer human tumor 439559-082-T-J2-PDC cell line growth inhibition [GQUAD];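 also: spheroids exposed to the agents for 7 days before readout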;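 as to viability, T/C: percent of luminescence signal in DMSO vehicle wells taken as 100% viability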
Experimental context: second compound 3.16 µM; first compound 0.1 µM; stronger effect = lower value
List of viability, T/C values.

Consider the following illustrative entries.
Could you tell me which viability, T/C is on file for C=CCn1c(=O)c2cnc(Nc3ccc(N4CCN(C)CC4)cc3)nc2n1-c1cccc(C(C)(C)O)n1 + Cc1cnc(CNC(=O)c2c(=O)c3ccc(N4CCCN(C)CC4)nc3n3c2sc2ccccc23)cn1 ? 63.6%

Then this compound: C#Cc1c(F)ccc2cc(O)cc(-c3ncc4c(N5CC6CCC(C5)N6)nc(OCC56CCCN5CC(F)C6)nc4c3F)c12 (stereo unspecified) + Cc1[nH]c2ccc(F)cc2c1-c1nc2c3cccnc3c3ncccc3c2[nH]1 72.5%

Next record, please: O=c1[nH]cc(F)c(=O)[nH]1 + Cc1[nH]c2ccc(F)cc2c1-c1nc2c3cccnc3c3ncccc3c2[nH]1 88.8%

For O=C(NO)c1cnc(N2CCN(S(=O)(=O)c3ccc4ccccc4c3)CC2)nc1 + Cc1[nH]c2ccc(F)cc2c1-c1nc2c3cccnc3c3ncccc3c2[nH]1 then? 73.7%

What do we get for COc1ccc([C@@H](O)c2cc(-c3ncnc4cc(N5CCOCC5)ccc34)c(F)cc2Cl)nn1 + Cc1cnc(CNC(=O)c2c(=O)c3ccc(N4CCCN(C)CC4)nc3n3c2sc2ccccc23)cn1 ? 62.7%

Next:
# viability, T/C lookup, item O=c1[nH]cc(F)c(=O)[nH]1 + Cc1cnc(CNC(=O)c2c(=O)c3ccc(N4CCCN(C)CC4)nc3n3c2sc2ccccc23)cn1 68.3%

---

System: 439559-082-T-J2-PDC spheroids viability
Test summary: Anticancer human tumor 439559-082-T-J2-PDC cell line growth inhibition [GQUAD];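 also: spheroids exposed to the agents for 7 days before readout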;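 as to viability, T/C: percent of luminescence signal in DMSO vehicle wells taken as 100% viability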
Experimental context: second compound 0.1 µM; first compound 3.16 µM; stronger effect = lower value
Binary call on viability, T/C with cut-off 50%: strictly below means Y, and equality or higher means N.

Example entries begin here.
Below 50% on viability, T/C? Entry CC(C)n1c(=O)n(C)c2cnc3cc(F)c(-c4ccc(OCCCN5CCCCC5)nc4)cc3c21 + Cc1cnc(CNC(=O)c2c(=O)c3ccc(N4CCCN(C)CC4)nc3n3c2sc2ccccc23)cn1 N

Try this compound too: COc1cccc2c1C(=O)c1c(O)c3c(c(O)c1C2=O)CC(O)(C(=O)CO)CC3OC1CC(N)C(O)C(C)O1 (stereo not given) + Cc1cnc(CNC(=O)c2c(=O)c3ccc(N4CCCN(C)CC4)nc3n3c2sc2ccccc23)cn1 N

And what about the compound COc1cc(C2c3cc4c(cc3C(OC3OC5COC(C)OC5C(O)C3O)C3COC(=O)C23)OCO4)cc(OC)c1O (stereo not given) + CN(C)c1ccc(Nc2c3ccc(NC(=O)CCN4CCCC4)cc3nc3cc(NC(=O)CCN4CCCC4)ccc23)cc1 ? N

Now the compound CC1COCCN1c1cc(C2(S(C)(=N)=O)CC2)nc(-c2ccnc3[nH]ccc23)n1 (stereo not given) + CN(C)c1ccc(Nc2c3ccc(NC(=O)CCN4CCCC4)cc3nc3cc(NC(=O)CCN4CCCC4)ccc23)cc1 N

Now the compound CC1COCCN1c1cc(-c2ccnn2C)c2ccnc(-c3ccn[nH]3)c2n1 (stereo not given) + Cc1[nH]c2ccc(F)cc2c1-c1nc2c3cccnc3c3ncccc3c2[nH]1 Y

Turning now to a further compound:
In plain terms, does CC1COCCN1c1cc(-c2ccnn2C)c2ccnc(-c3ccn[nH]3)c2n1 (stereo not given) + Cc1cnc(CNC(=O)c2c(=O)c3ccc(N4CCCN(C)CC4)nc3n3c2sc2ccccc23)cn1 come in under 50% for viability, T/C? Y
